meta.source: patent US11458135B2

# Test system: human recombinant 5-HT2A receptor (Homo sapiens (Human))
# Protocol summary: Determination of Ki value at 5-HT2A receptor (radioligand binding, [3H]-Ketanserine)
# Measurement setup: [3H]-Ketanserine 1.75 nM, average of three independent experiments
Where a name gives a salt, the structure may show the parent alone.
Measurement type: Ki

- Molecule: "COc1ccc2c(c1)c(CN1CCN(C)CC1)cn2S(=O)(=O)c1ccc(F)cc1 [Compound 2, dihydrochloride]"
  Test system: "human recombinant 5-HT2A receptor (Homo sapiens (Human))"
  Value measured: "> 10 µM"
